tested on: HeLa cells; test: Compound screen by flow cytometry: HeLa cell count as surrogate readout of cell viability (z-scoreHeLa); assay type: cell-based, human; settings: compound screen, HeLa cell count, replicate 2; further: test concentration or dose not given here
Classify as follows. Reported z-scoreHeLa rep 2 greater than or equal to -0.08: t. Reported z-scoreHeLa rep 2 below: f.

COMPOUND: CC(C)c1nc(-c2cccc(NS(=O)(=O)c3c(F)cccc3F)c2)c(-c2ccnc(Nc3ccc(N4CCOCC4)nc3)n2)s1 [GSK1723980B]
QUALITATIVE_LABEL: f

COMPOUND: COc1cc(C=NNc2ncnc3c2cnn3-c2ccccc2)ccc1O [GW513184X]
QUALITATIVE_LABEL: t

COMPOUND: CCn1c(-c2nonc2N)nc2c(C#CC(C)(C)O)nc(OC[C@H](N)c3ccccc3)cc21 [GSK943949A]
QUALITATIVE_LABEL: f

COMPOUND: Cc1ccnc2ccc(-c3sc(N)nc3-c3ccccn3)nc12 [GW777257X]
QUALITATIVE_LABEL: f

COMPOUND: Nc1nccc2scc(-c3ccc4c(c3)CCN4C(=O)Cc3ccccc3)c12 [GSK2576924A]
QUALITATIVE_LABEL: f

COMPOUND: CS(=O)(=O)CCN(CC#N)Cc1ccc(-c2ccc3ncnc(Nc4ccc(OCc5cccc(F)c5)c(Cl)c4)c3c2)o1 [GW616030X]
QUALITATIVE_LABEL: f

COMPOUND: Fc1cc(Cl)ccc1Nc1ccnc2cc(-c3ccc(CN4CCCCC4)o3)ccc12 [GW560116X]
QUALITATIVE_LABEL: f

COMPOUND: COc1ccc(Nc2nccc(NCCNC(=O)Nc3ccccc3F)n2)cc1 [GSK1379901A]
QUALITATIVE_LABEL: f

COMPOUND: COc1cccc(CC(=O)N2CCc3cc(-c4cn(C)c5ncnc(N)c45)ccc32)c1 [GSK2608899A]
QUALITATIVE_LABEL: f

COMPOUND: Fc1cccc(COc2ccc(Nc3ncnc4sc(-c5ccc[nH]5)cc34)cc2Cl)c1 [GW707818B]
QUALITATIVE_LABEL: t

COMPOUND: COc1cccc(NC(=O)NCCNc2ccnc(Nc3ccc(F)cc3)n2)c1 [GSK1379879A]
QUALITATIVE_LABEL: f

COMPOUND: NCCCC(NC(=O)c1cc(Br)c(-c2ccnc3[nH]ccc23)s1)c1ccccc1 (stereo not shown) [GSK1287544A]
QUALITATIVE_LABEL: t

COMPOUND: COc1ccc(-c2oc3ncnc(N)c3c2-c2ccc(NC(=O)Nc3cc(C(F)(F)F)ccc3F)cc2)cc1 [GW768505A]
QUALITATIVE_LABEL: f

COMPOUND: Cl.Cl.Cl.Fc1ccc(-c2ncn(C3CCNCC3)c2-c2ccnc(Nc3ccccc3)n2)cc1
QUALITATIVE_LABEL: f

COMPOUND: Nc1nonc1-c1nc2cnccc2n1C1CCCCC1
QUALITATIVE_LABEL: f

COMPOUND: CCNC(=O)O[C@H]1CN[C@H](C#Cc2cc3ncnc(Nc4ccc(OCc5cccc(F)c5)c(Cl)c4)c3s2)C1 [GSK192082A]
QUALITATIVE_LABEL: f

COMPOUND: CC(C(=O)NC1CCN(c2ccnc(Nc3ccc(F)cc3)n2)C1)c1ccc(Cl)cc1 (stereo not shown) [GSK1379713A]
QUALITATIVE_LABEL: t

COMPOUND: O=C(NCCNc1ccnc(Nc2ccc(F)cc2)n1)Nc1ccccc1F [GSK1379880A]
QUALITATIVE_LABEL: t

COMPOUND: COC(=O)Nc1nc2ccc(Oc3ccc(NC(=O)Nc4cc(C(F)(F)F)ccc4Cl)cc3)cc2[nH]1 [GW697465A]
QUALITATIVE_LABEL: f

COMPOUND: Cc1ccc(C(=O)Nc2ccc(Nc3ccnc4cc(-c5ccccn5)ccc34)cc2O)cc1 [GW440146A]
QUALITATIVE_LABEL: t

COMPOUND: COc1ccc(CNC(=O)NC2CCN(c3ccnc(Nc4ccc(F)cc4)n3)CC2)cc1 [GSK1379788A]
QUALITATIVE_LABEL: t

COMPOUND: Cc1cccc2c1NC(=O)C2=NNc1ccc(S(N)(=O)=O)cc1 [GW282536X]
QUALITATIVE_LABEL: f

COMPOUND: COc1ccc2[nH]c3c4[nH]c5ccc(OC)cc5c4c4c(c3c2c1)C(=O)NC4=O [GW296115X]
QUALITATIVE_LABEL: t

COMPOUND: CN(C)CCOc1ccc(-c2cc(-c3ccc(Cl)c(O)c3)c(-c3ccncc3)[nH]2)cc1.Cl.Cl
QUALITATIVE_LABEL: t

COMPOUND: Cc1c(O)cccc1Nc1ccnc2ccc(C(F)(F)F)cc12 [GW466413A]
QUALITATIVE_LABEL: f

COMPOUND: CN(C)C(=O)O[C@@H]1CN[C@@H](C#Cc2cc3ncnc(Nc4ccc(OCc5cccc(F)c5)c(Cl)c4)c3s2)C1 [GSK238063A]
QUALITATIVE_LABEL: f

COMPOUND: COc1cccc(-n2nc(C)c3c(N/N=C(\C)c4ccncc4)ncnc32)c1 [GW809885X]
QUALITATIVE_LABEL: t

COMPOUND: O=C(Nc1n[nH]c2cc(-c3ccsc3)ccc12)C1CC1
QUALITATIVE_LABEL: t

COMPOUND: CN(c1ccc2c(c1)nc(NCc1ccccc1)n2C)c1ccnc(Nc2ccc(CS(C)(=O)=O)cc2)n1 [GW811603A]
QUALITATIVE_LABEL: f

COMPOUND: Cc1cccc(-c2nc(Nc3ccc4[nH]ncc4c3)c3ccccc3n2)n1 [GW857175X]
QUALITATIVE_LABEL: f

COMPOUND: CS(=O)(=O)CCNCc1ccc(-c2ccc3ncnc(Nc4ccc(OCc5ccccc5)c(Br)c4)c3c2)o1 [GW580496A]
QUALITATIVE_LABEL: t

COMPOUND: O=C(Nc1n[nH]c2cc(-c3cccc(F)c3F)ccc12)C1CC1
QUALITATIVE_LABEL: t

COMPOUND: Cc1n[nH]c2cc(Nc3ccnc(Nc4cccc(CN5CCOCC5)c4)n3)ccc12 [GW682569X]
QUALITATIVE_LABEL: f

* * *

As shown below, each of these molecules has a reported cell count rep 3 value.
test system: HeLa cells; test: Compound screen by flow cytometry: HeLa cell count as surrogate readout of cell viability (z-scoreHeLa); format: cell-based, human; conditions: PKIS compounds raw data; replicate 3; HeLa cell count; further: test concentration or dose not given here

MOLECULE: COc1ccc(-c2oc3ncnc(N)c3c2-c2ccc(NC(=O)Nc3cc(C(F)(F)F)ccc3F)cc2)cc1 [GW768505A]
cell count rep 3: 5860

MOLECULE: COc1ccc(S(=O)(=O)NC2CCN(c3cc(C)nc(Nc4cccc(C#N)c4)n3)CC2)cc1 [GSK1653539A]
cell count rep 3: 5350

MOLECULE: COc1ccc(Nc2nccc(N3CCC(NC(=O)C(C)c4ccc(Cl)cc4)CC3)n2)cc1 (centres unmarked) [GSK1379812A]
cell count rep 3: 5839

MOLECULE: Nc1ncnc2occ(-c3ccc(NC(=O)Nc4cc(C(F)(F)F)ccc4F)cc3)c12 [GW770249X]
cell count rep 3: 3259

MOLECULE: CN(C)S(=O)(=O)c1cc(-c2ccc3nccc(-c4cccc(S(N)(=O)=O)c4)c3c2)cnc1N [GSK1669921A]
cell count rep 3: 3857

MOLECULE: COc1ccccc1-c1cc(/C=C2\C(=O)Nc3ncc(Br)cc32)cc(Br)c1O [GW442130X]
cell count rep 3: 6669

MOLECULE: CS(=O)(=O)Nc1ccc(N/C=C2\C(=O)Nc3ccccc32)cc1 [GW278681X]
cell count rep 3: 6630

MOLECULE: CCNC(=O)O[C@H]1CN[C@H](C#Cc2cc3ncnc(Nc4ccc(OCc5cccc(F)c5)c(Cl)c4)c3s2)C1 [GSK192082A]
cell count rep 3: 5819

* * *

test system: HeLa cells; test: Compound screen by flow cytometry: HeLa cell count as surrogate readout of cell viability (z-scoreHeLa); type: cell-based, human; conditions: compound screen, HeLa cell count, replicate 2; further: test concentration or dose not given here
The following compounds are shown together with reported z-scoreHeLa rep 2 values.
TEST_READOUT: z-scoreHeLa rep 2

COMPOUND: Cn1cc(-c2cnc(N)c3c(-c4ccc5c(c4)CCN5C(=O)Cc4ccccc4)csc23)cn1 [GSK2593074A]
OBSERVED: -2.95

COMPOUND: Cn1cc(-c2ccc3c(c2)CCN3C(=O)Cc2cc(F)cc(C(F)(F)F)c2)c2c(N)ncnc21 [GSK2635225A]
OBSERVED: -0.0088

COMPOUND: Nc1ncc(-c2ccncc2)c2scc(-c3ccc4c(c3)CCN4C(=O)Cc3ccccc3)c12 [GSK2592465A]
OBSERVED: 0.26

COMPOUND: c1ccc(-c2n[nH]cc2-c2ccnc(-c3ccc(CNC4CCOCC4)cc3)c2)nc1 [GW709213X]
OBSERVED: 1.46

COMPOUND: N#Cc1ccc(CCNc2nccc(-c3cccc(CN4CCNCC4)c3)n2)cc1 [GSK2137462A]
OBSERVED: 2.53

COMPOUND: CS(=O)(=O)Nc1ccc(N/C=C2\C(=O)Nc3ccccc32)cc1 [GW278681X]
OBSERVED: 0.34

COMPOUND: Nc1ncc(-c2cccc(S(N)(=O)=O)c2)c2scc(-c3ccc(F)c(Cl)c3)c12 [GW856804X]
OBSERVED: 2.25

COMPOUND: Cc1ccc(C)c(NC(=O)NCCNc2ccnc(Nc3ccc(F)cc3)n2)c1 [GSK1379878A]
OBSERVED: -0.54

COMPOUND: COc1cc(Nc2ncc(-c3ccccc3)o2)cc(OC)c1OC [GW627512B]
OBSERVED: -0.96

COMPOUND: CCn1cc(-c2ccnc3[nH]ccc23)c(-c2cccc(NC(=O)Nc3ccc(OCc4ccccc4)cc3)c2)n1 [GSK718429A]
OBSERVED: -1.61

COMPOUND: O=c1cc(N2CCOCC2)nc2n(Cc3cccc(Cl)c3)ccn12 [GSK2296823A]
OBSERVED: 1.58

COMPOUND: O=C(Nc1ccc(Oc2ccc3nc(NC(=O)c4ccco4)[nH]c3c2)cc1)Nc1cc(C(F)(F)F)ccc1F [GW683134A]
OBSERVED: -0.97

COMPOUND: CS(=O)(=O)CCNCc1nc(-c2ccc3ncnc(Nc4ccc(OCc5ccccc5)c(Cl)c4)c3c2)cs1 [GW582764A]
OBSERVED: -0.60

COMPOUND: CN1CCN(Cc2ccc(NC(=O)Nc3ccc(N(C)c4ccnc(Nc5ccc(CS(C)(=O)=O)cc5)n4)cc3)cc2)CC1 [GW827654A]
OBSERVED: 1.08

COMPOUND: CC(=O)N1CCN(c2ccc(Nc3nccc(-c4sc(C(C)C)nc4-c4cccc(NS(=O)(=O)c5cccc(Cl)c5)c4)n3)cn2)CC1 [GSK1660437A]
OBSERVED: -0.61

COMPOUND: O=C(c1ccc(-c2cc(-c3c[nH]nc3-c3ccccn3)ccn2)cc1)N1CCCC1 [GW792479X]
OBSERVED: 0.43
